system: HPPD polypeptides; assay: coupled HPPD activity assay: turnover and residual turnover in crude extracts; type: biochemical, Pseudomonas fluorescens; settings: 100 μM Cmpd. 1; signal change with inhibitor divided by signal change without inhibitor
Exercise: state measured Residual turnover [%] for each of the molecules provided.
Provide the reading as a plain figure in %.

Query string: Reported Residual turnover [%], molecule 28 (protein, mutant HPPD polypeptide) MADLYENPMGLMGFEFIEFASPTPGTLEPIFEIMGFTKVATHRSKNVHLYRQGEINLILNNEPNSIASYFAAEHGPSVCGMAFRVKDSQKAYNRALELGAQPIHIDTGPMELNLPAIKGIGGAPLYLIDRFGEGSSIYDIDFVYLEGVERNPVGAGLKVIDHLTHNVYRGRMVYWANFYEKLFNFREARYFDIKGEYTGLTSKAMSAPDGMIRIPLNEESSKGAGQIEEFLMQFNGEGIQHVAFLTDDLVKTWDALKKIGMRFMTAPGDNYYEMLEGRLPDHGEPVDQLQARGILLDGSSVEGDKRLLLQIFSETLMGPVFFEFIQRKGDDGFGPHSFKVLFESIERDQVRRGVLTAD : ____
Result string: 43

Query string: Lookup 62 (protein, mutant HPPD polypeptide) MADLYENPMGLMGFEFIEFASPTPGTLEPIFEIMGFTKVATHRSKNVHLYRQGEINLILNNEPNSIASYFAAEHGPSVCGMAFRVKDSQKAYNRALELGAQPIHIDTGPMELNLPAIKGIGGAPLYLIDRFGEGSSIYDIDFVYLEGVERNPVGAGLKVIDHLTHNVYRGRMVYWANFYEKLFNFREARYFDIKGEYTGLTSKAMSAPDGMIRIPLNEESSKGAGQIEEFLMQFNGEGIQHVAFLTDDLVKTWDALKKIGMRFMTAPADSYYEMLEGRLPDHGEPVDQLQARGILLDGSSVEGDKRLLLQIFSETLMGPVFFEFIQRKGDDGFGPHSFKVLFESMERDQVRRGVLTAD
Result string: 37

Query string: Lookup 30 (protein, mutant HPPD polypeptide) MADLYENPMGLMGFEFIEFASPTPGTLEPIFEIMGFTKVATHRSKNVHLYRQGEINLILNNEPNSIASYFAAEHGPSVCGMAFRVKDSQKAYNRALELGAQPIHIDTGPMELNLPAIKGIGGAPLYLIDRFGEGSSIYDIDFVYLEGVERNPVGAGLKVIDHLTHNVYRGRMVYWANFYEKLFNFREARYFDIKGEYTGLTSKAMSAPDGMIRIPLNEESSKGAGQIEEFLMQFNGEGIQHVAFLTDDLVKTWDALKKIGMRFMTAPADTYYEMLEGRLPDHGEPVDQLQARGILLDGSSVEGDKRLLLQIFSETLMGPVFFEFIQRKGDDGFGPHSFKVLFESVERDQVRRGVLTAD
Result string: 48

Query string: Lookup 22 (protein, mutant HPPD polypeptide) MADLYENPMGLMGFEFIEFASPTPGTLEPIFEIMGFTKVATHRSKNVHLYRQGEINLILNNEPNSIASYFAAEHGPSVCGMAFRVKDSQKAYNRALELGAQPIHIDTGPMELNLPAIKGIGGAPLYLIDRFGEGSSIYDIDFVYLEGVERNPVGAGLKVIDHLTHNVYRGRMVYWANFYEKLFNFREARYFDIKGEYTGLTSKAMSAPDGMIRIPLNEESSKGAGQIEEFLMQFNGEGIQHVAFLTDDLVKTWDALKKIGMRFMTAPGDTYYEMLEGRLPDHGEPVDQLQARGILLDGSSVEGDKRLLLQIFSETLMGPVFFEFIQRKGDDGFGPDSFKVLFEQVERDQVRRGVLTAD
Result string: 47
